System: U-937
PROTOCOL_TEXT: Cytotoxicity against human U937 cells after 24 hrs by MTT assay
Format: functional, cell-based
MEASUREMENT_PARAMETERS: U-937, 24 h
Please provide measured IC50 for the entries that follow.
// note: answer is a bare numeric in µg/mL

Give the measured IC50 of CCCCCCCCCCn1cc(Cn2c(C)nc3nc(-c4ccccc4)cc(C(F)(F)F)c3c2=O)nn1 .
6.2

Query: IC50; subject: CCCCCCc1nc2nc(-c3ccccc3)cc(C(F)(F)F)c2c(=O)n1Cc1cn(CCC(F)(F)C(F)(F)C(F)(F)C(F)(F)C(F)(F)C(F)(F)F)nn1
7.56

----------
For each entry below, report its IC50 value.
Test system: U-937
PROTOCOL_TEXT: Cytotoxicity against human U937 cells after 24 hrs by MTT assay
Format: functional, cell-based
MEASUREMENT_PARAMETERS: U-937, 24 h
Use µg/mL as the unit, but write only the number.

Returns the measured IC50 for the input compound. Input: CC(C)c1nc2nc(-c3ccccc3)cc(C(F)(F)F)c2c(=O)n1Cc1cn(CCC(F)(F)C(F)(F)C(F)(F)C(F)(F)C(F)(F)C(F)(F)C(F)(F)C(F)(F)F)nn1
8.35

Query (compound): COc1cc([C@@H]2c3cc4c(cc3[C@@H](O[C@@H]3O[C@@H]5CO[C@@H](C)O[C@H]5[C@H](O)[C@H]3O)[C@H]3COC(=O)[C@H]23)OCO4)cc(OC)c1O [ETOPOSIDE] ; field requested: IC50
17.9

Value lookup for IC50; key = CCCCCCCCCCn1cc(Cn2c(CC)nc3nc(-c4ccccc4)cc(C(F)(F)F)c3c2=O)nn1
17.8

Dear colleague, I am looking for the recorded IC50 of the following compound: CCCCCCCCCCn1cc(Cn2cnc3nc(-c4ccccc4)cc(C(F)(F)F)c3c2=O)nn1
8.16

IC50 lookup needed for Cc1nc(OCc2cn(CCC(F)(F)C(F)(F)C(F)(F)C(F)(F)C(F)(F)C(F)(F)C(F)(F)C(F)(F)F)nn2)c2c(C(F)(F)F)cc(-c3ccccc3)nc2n1 , thanks.
22.4

Requested read-out: IC50. Entry: FC(F)(F)c1cc(-c2ccccc2)nc2nc(-c3ccccc3)nc(OCc3cn(CCC(F)(F)C(F)(F)C(F)(F)C(F)(F)C(F)(F)C(F)(F)C(F)(F)C(F)(F)F)nn3)c12
44.4

Consider the compound CCc1nc(OCc2cn(CCC(F)(F)C(F)(F)C(F)(F)C(F)(F)C(F)(F)C(F)(F)F)nn2)c2c(C(F)(F)F)cc(-c3ccccc3)nc2n1 and give its measured IC50.
9.22

Recorded IC50 of Cc1nc2nc(-c3ccccc3)cc(C(F)(F)F)c2c(=O)n1Cc1cn(CCC(F)(F)C(F)(F)C(F)(F)C(F)(F)C(F)(F)C(F)(F)C(F)(F)C(F)(F)F)nn1 , please.
124

Values from ChEMBL document CHEMBL1806442
